Target: Human recombinant MMP-2 (Homo sapiens)
Construct: made in house; host or cells: MMP-2-transfected p2AHT2 cells
Sequence (P08253 110-660): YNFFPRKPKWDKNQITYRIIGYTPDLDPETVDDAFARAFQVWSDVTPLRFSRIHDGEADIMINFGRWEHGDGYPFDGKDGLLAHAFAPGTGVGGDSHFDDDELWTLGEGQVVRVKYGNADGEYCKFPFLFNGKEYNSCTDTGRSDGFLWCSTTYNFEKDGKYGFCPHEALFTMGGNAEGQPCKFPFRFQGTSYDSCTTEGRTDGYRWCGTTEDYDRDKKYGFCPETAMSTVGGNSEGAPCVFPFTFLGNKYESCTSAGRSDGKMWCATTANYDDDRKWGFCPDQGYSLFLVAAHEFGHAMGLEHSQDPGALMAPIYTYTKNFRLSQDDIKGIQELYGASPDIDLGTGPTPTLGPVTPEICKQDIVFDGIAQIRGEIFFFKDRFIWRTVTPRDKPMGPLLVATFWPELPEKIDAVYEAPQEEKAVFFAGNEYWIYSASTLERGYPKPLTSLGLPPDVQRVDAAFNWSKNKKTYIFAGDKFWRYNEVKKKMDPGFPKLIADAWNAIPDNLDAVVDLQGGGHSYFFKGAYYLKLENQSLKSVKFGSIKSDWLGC
Assay: In vitro MMP inhibition, IC50 determination (fluorogenic substrate I)
Type: biochemical
Details: value outside parentheses (Ki in parenthesis)
pIC50: −log10 of the molar value.
So basically: pIC50 at 7 or higher? That is fulfilled. Lower than 7? That is not fulfilled.

CC(C)(COc1ccc(S(=O)(=O)C2(C(=O)NO)CCOCC2)cc1)CS(=O)(=O)Cc1cccc(OC(F)(F)F)c1 = fulfilled
O=C(NO)C1(S(=O)(=O)c2ccc(OCCCCCN3CCc4ccccc4C3)cc2)CCOCC1 = fulfilled
O=C(CCCCOc1ccc(S(=O)(=O)C2(C(=O)NO)CCOCC2)cc1)c1cccc2ccccc12 = fulfilled
COc1ccc(C(=O)N2CC[C@@H](Oc3ccc(S(=O)(=O)C4(C(=O)NO)CCOCC4)cc3)C2)cc1OC = not fulfilled
Cc1ccc2c(c1)CCCN2CCCCCOc1ccc(S(=O)(=O)C2(C(=O)NO)CCOCC2)cc1 = fulfilled
CCCC(C)C(=O)NCCCOc1ccc(S(=O)(=O)C2(C(=O)NO)CCOCC2)cc1 (centres unmarked) = not fulfilled

Here is the next item to consider.
Form field: pIC50 at least 7? Entry: O=C(NO)C1(S(=O)(=O)c2ccc(OCCCOc3ccc4ccccc4c3)cc2)CCOCC1
fulfilled
